system: M. tuberculosis H37Rv growth inhibition, 7H9 media; assay: M. tuberculosis growth inhibition, HTS (AID 449762); details: measured here: IC90 growth inhibition;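 further: bacterial growth assessed after seven days of incubation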
Records with an inconclusive call do not appear.
Kindly supply the reported IC90 values for the records listed here.

{"Structure": "Cc1ccc2c(c1)nnn2C1CCN(CC(=O)N2CCN(c3ccc(F)cc3)CC2)CC1", "IC90": "> 100 µM"}
{"Structure": "Cc1ccc(F)cc1CNC(=O)c1cc(COc2ccc3ncccc3c2)on1", "IC90": "> 100 µM"}
{"Structure": "CCOc1ccc(NC(=O)CSc2cn[nH]n2)cc1", "IC90": "> 100 µM"}
{"Structure": "CCOc1ccc(/C=C/C2=Cc3c(sc(NC(=O)CSc4n[nH]c(N)n4)c3C#N)C(C)(C)C2)cc1", "IC90": "> 100 µM"}

Field request: IC90 | item: `CC(C)(C)Nc1nc(NC(C)(C)C)nc(-n2ccnc2)n1`
> 100 µM

----------
tested on: M. tuberculosis H37Rv growth inhibition, 7H9 media; experiment: M. tuberculosis growth inhibition, HTS (AID 449762); conditions: measured here: IC90 growth inhibition;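 further: bacterial growth assessed after seven days of incubation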
Results filed as inconclusive are left out.
Measure name: IC90

{"Molecule": "CCc1ccc(NC2=NCC(c3ccccc3)S2)cc1 (stereo unspecified)", "Value observed": "> 100 µM"}
{"Molecule": "COc1ccc(OCCCC(=O)OC(C)C(=O)Nc2ccccc2[N+](=O)[O-])cc1 (stereo unspecified)", "Value observed": "> 100 µM"}
{"Molecule": "O=c1c(C=Nc2ccc(Oc3ccccc3)cc2)c[nH]n1-c1cccc(Cl)n1", "Value observed": "> 100 µM"}
{"Molecule": "Cc1nn(Cc2ccccc2)c(C)c1NC(=O)c1cc2nc(-c3ccco3)cc(C(F)(F)F)n2n1", "Value observed": "> 100 µM"}
{"Molecule": "COc1ccc2c(c1)CCc1c(C(=O)Nc3c(C)n(C)n(-c4ccccc4)c3=O)noc1-2", "Value observed": "> 100 µM"}

Now look at this entry.
Field request: IC90 | item: `Cc1nn(-c2ccccc2)c(Cl)c1C(=O)Nc1nnc(C2CCCCC2)s1`
> 50 µM

----------
Kindly supply the reported IC90 values for the records listed here.
tested on: M. tuberculosis H37Rv growth inhibition, 7H9 media; assay: M. tuberculosis growth inhibition, HTS (AID 449762); settings: measured here: IC90 growth inhibition;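 further: bacterial growth assessed after seven days of incubation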
Records with an inconclusive call do not appear.

Some solved cases for reference:
{"Structure": "Cc1cc(C)n2[nH]c(=O)c(N=Nc3cccc(C(F)(F)F)c3)c2n1", "IC90": "> 100 µM"}
{"Structure": "Cc1ccc(-c2noc(-c3cc4ccccc4oc3=O)n2)cc1", "IC90": "> 100 µM"}
{"Structure": "Cn1ccc(=Nc2ccc(NC(=O)c3ccc(N=c4ccn(C)c5ccc([N+](=O)[O-])cc45)cc3)cc2)cc1", "IC90": "< 0.2 µM"}

For every record below, what is its IC90?
1. C/C(CC(=O)Nc1ccc2c(c1)OCCO2)=N\NC(=O)c1ccccc1F
2. CCOc1ccc(-c2csc(/C(C#N)=C\c3ccc(O)c([N+](=O)[O-])c3)n2)cc1
3. CCOc1ccc(NC(=S)Nc2ccc(C)c([N+](=O)[O-])c2)cc1
4. Cc1cc2c(cc1C)CSC(c1c(O)ccc3ccccc13)SC2

1. > 100 µM
2. > 100 µM
3. > 100 µM
4. > 100 µM

For every record below, what is its IC90?
1. O=C(NC1CCCCCC1)c1ccccc1-c1ccccc1
2. COc1cc(NC(=O)c2cccs2)c(C(=O)OCC(=O)NCc2ccco2)cc1OC

["> 100 µM", "> 100 µM"]
